Taken from PubChem BioAssay (NCI).

# Test system: NCI-H322M lung
# test.protocol: NCI-60 one-dose screen, 48 h
# study.conditions: 10 µM unless noted
This is part of a sample that, as a whole, favours compounds with a hit. Of some 83,000 tested, about 20% had one in any assay. The source made the active and inactive calls. Rule for the calls: active = growth percent below 10; inactive = the rest.
Possible outcomes: 1 = active, -1 = inactive

{"smiles.input": "CCOC(=O)c1c2c(c(C)n1Cc1ccc(OC)cc1)-c1oncc1CC2", "target.or.system": "NCI-H322M lung", "class.assignment": -1}
{"smiles.input": "CC(=O)O[C@@H]1/C=C/C(=O)N[C@@H](C)CCC/C=C/[C@@H]2CCC[C@H]21", "target.or.system": "NCI-H322M lung", "class.assignment": -1}
{"smiles.input": "CCOC(=O)CSc1c(-c2ccccc2)c2cc(Cl)ccc2[nH]c1=O", "target.or.system": "NCI-H322M lung", "class.assignment": -1}
{"smiles.input": "O=C1/C(=C\\c2ccc[nH]2)c2ccccc2N1c1ccccc1", "target.or.system": "NCI-H322M lung", "class.assignment": -1}
{"smiles.input": "Cc1cccc2c(=O)c3c(sc12)c(NCCN)nc1ccccc13", "target.or.system": "NCI-H322M lung", "class.assignment": 1}
